# EXPERIMENT DESCRIPTION: Cell viability assay (CellTiter-Glo), ARH-77
# Type: cell-based
# CONDITION: human, ARH-77 cells (lymphoblast-like, MCL-1 independent), ARH-77, 24 hours, 1% FBS, read-out: Average pCC50 by molecule ARH-77 (converted)
QUANTITY KIND: CC50 at 24 h

Cc1nn(C)c(C)c1-c1c(Cl)ccc2c(CCCOc3cccc4cc(F)ccc34)c(C(=O)O)n(CCN3C(C)CN(C(=O)COc4cccc5c4CN(C4CCC(=O)NC4=O)C5=O)CC3C)c12 (stereo not shown) :: > 10 µM
Cc1nn(C)c(C)c1-c1c(Cl)ccc2c(CCCOc3cccc4cc(F)ccc34)c(C(=O)O)n(CCN3CCN(C(=O)COc4cc(N)cc5c4CN(C4CCC(=O)NC4=O)C5=O)CC3)c12 (stereo not shown) :: > 10 µM
CNc1cc(OCC(=O)N2CCN(CCn3c(C(=O)O)c(CCCOc4cccc5cc(F)ccc45)c4ccc(Cl)c(-c5c(C)nn(C)c5C)c43)CC2)c2c(c1)C(=O)N(C1CCC(=O)NC1=O)C2 (stereo not shown) :: > 31.6 µM
Cc1nc2cc(C(=O)NCC(=O)N3CCN(CCn4c(C(=O)O)c(CCCOc5cccc6cc(F)ccc56)c5ccc(Cl)c(-c6c(C)nn(C)c6C)c54)CC3)ccc2cc1C1CCC(=O)NC1=O (stereo not shown) :: > 10 µM

Query: For the compound Cc1nn(C)c(C)c1-c1c(Cl)ccc2c(CCCOc3cccc4cc(F)ccc34)c(C(=O)O)n(CCN3CCN(C(=O)c4cc5cc(C6CCC(=O)NC6=O)ccc5n4C)CC3)c12 (stereo not shown) , what CC50 at 24 h is on record?
Reply: > 3.16 µM

Query: Same lookup for Cc1nn(C)c(C)c1-c1c(Cl)ccc2c(CCCOc3cccc4cc(F)ccc34)c(C(=O)O)n(CCN3CCN(C(=O)COc4ccc5c(c4)n(C)c(=O)n5C4CCC(=O)NC4=O)CC3)c12 (stereo not shown) , please.
Reply: > 31.6 µM

Query: Same lookup for Cc1nn(C)c(C)c1-c1c(Cl)ccc2c(CCCOc3cccc4cc(F)ccc34)c(C(=O)O)n(CCN3CCC(CN4CCN(c5ccc6c(c5)C(C)N(C5CCC(=O)NC5=O)C6=O)CC4)CC3)c12 (mixture of isomers) , please.
Reply: > 10 µM

Query: Same lookup for Cc1nn(C)c(C)c1-c1c(Cl)ccc2c(CCCOc3cccc4cc(F)ccc34)c(C(=O)O)n(CCN3CCN(C(=O)COc4cc(N(C)C)cc5c4CN(C4CCC(=O)NC4=O)C5=O)CC3)c12 (stereo not shown) , please.
Reply: > 10 µM

Query: Same lookup for Cc1nn(C)c(C)c1-c1c(Cl)ccc2c(CCCOc3cccc4cc(F)ccc34)c(C(=O)O)n(CCN3CCN(CC(=O)Nc4cccc5c4CN(C4CCC(=O)NC4=O)C5=O)CC3)c12 (stereo not shown) , please.
Reply: > 10 µM

Query: Same lookup for Cc1nc2ccc(C(=O)NCC(=O)N3CCN(CCn4c(C(=O)O)c(CCCOc5cccc6cc(F)ccc56)c5ccc(Cl)c(-c6c(C)nn(C)c6C)c54)CC3)cc2cc1C1CCC(=O)NC1=O (stereo not shown) , please.
Reply: > 10 µM

# credit: patent US20260248927A1
